B1: Proto-oncogene vav, residues 782 to 842; numbered along this chain, P15498 (parent)
chain: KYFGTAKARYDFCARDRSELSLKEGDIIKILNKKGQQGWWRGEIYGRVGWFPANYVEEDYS

variants of: B1; assay: abundance fitness (aPCA) (normalised: wild type 0, dead -1); higher = more abundant; growth selection in yeast, the domain comes from the species named; details: Homo sapiens
measuredAttribute: abundance fitness

Requested field: abundance fitness. Item: R15D
-0.466

Requested field: abundance fitness. Item: K7Q
-0.093

Requested field: abundance fitness. Item: R9K
0.072

Requested field: abundance fitness. Item: K23E
-0.613

Requested field: abundance fitness. Item: G38C
-0.725

Requested field: abundance fitness. Item: E57Q
-0.109

Requested field: abundance fitness. Item: K29M
-0.095

Requested field: abundance fitness. Item: E57R
-0.123

Requested field: abundance fitness. Item: K34F
-0.363

Requested field: abundance fitness. Item: D59H
-0.109

Requested field: abundance fitness. Item: F3M
-0.054

Requested field: abundance fitness. Item: Q37T
-0.135

Requested field: abundance fitness. Item: K1D
-0.437

Requested field: abundance fitness. Item: E24R
0.068

Requested field: abundance fitness. Item: P52N
-0.761

Requested field: abundance fitness. Item: F51G
-0.838

Requested field: abundance fitness. Item: P52W
-0.943

Requested field: abundance fitness. Item: E43H
-0.993

Requested field: abundance fitness. Item: L31R
-0.461

Requested field: abundance fitness. Item: R41W
-0.123

Requested field: abundance fitness. Item: D59V
-0.009

Requested field: abundance fitness. Item: E43V
-0.411

Sourced from the Human Domainome abundance scans (Beltran et al. 2025)
